Recorded IC50 values for a group of compounds are listed next.
- tested_system: human recombinant HDAC1 (Homo sapiens, UniProt Q13547)
- Sequence (Q13547 whole entry): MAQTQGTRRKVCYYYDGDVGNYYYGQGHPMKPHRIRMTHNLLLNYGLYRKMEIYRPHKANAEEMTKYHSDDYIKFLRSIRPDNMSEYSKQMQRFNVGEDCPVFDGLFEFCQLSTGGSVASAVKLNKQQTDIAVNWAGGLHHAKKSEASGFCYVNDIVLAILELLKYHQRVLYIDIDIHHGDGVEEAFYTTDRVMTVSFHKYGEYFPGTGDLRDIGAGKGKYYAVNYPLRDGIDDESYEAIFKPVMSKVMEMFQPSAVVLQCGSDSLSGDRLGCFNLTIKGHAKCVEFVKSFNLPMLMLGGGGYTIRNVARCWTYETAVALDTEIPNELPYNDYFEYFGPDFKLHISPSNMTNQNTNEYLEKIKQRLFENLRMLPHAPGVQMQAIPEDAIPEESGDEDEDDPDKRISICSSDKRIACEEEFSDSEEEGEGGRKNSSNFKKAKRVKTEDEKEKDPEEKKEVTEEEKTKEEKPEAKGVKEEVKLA
- measurement_description: HDAC1 enzyme activity inhibition assay (in vitro, fluorimetric)
- test_context: human recombinant HDAC1, fluorimetric kit, 30° C. 60 minutes

Study these solved cases before continuing.
{"columns": ["query_smiles", "tested_system", "IC50"],
 "data": [
  ["C[C@@H]1CN(Cc2ccc(C(=O)NO)cc2)C[C@H](C)N1Cc1cccc(CN2CCN(CC(C)(C)F)CC2)c1", "human recombinant HDAC1 (Homo sapiens, UniProt Q13547)", "> 10 µM"],
  ["C[C@@H]1CN(Cc2ccc(C(=O)NO)cc2)C[C@H](C)N1Cc1cccc(CN2CC[C@@H](F)C2)c1", "human recombinant HDAC1 (Homo sapiens, UniProt Q13547)", "> 10 µM"],
  ["C[C@@H]1CN(C(=O)Cc2cccc(-c3ccncc3)c2)C[C@H](C)N1Cc1ccc(C(=O)NO)cc1", "human recombinant HDAC1 (Homo sapiens, UniProt Q13547)", "13.7 µM"],
  ["C[C@@H]1CN(Cc2ccc(/C=C/C(=O)NO)cc2)C[C@H](C)N1C(=O)Cc1ccccc1", "human recombinant HDAC1 (Homo sapiens, UniProt Q13547)", "> 10 µM"]
]}

Field: next compound
Per the record, `C[C@@H]1CN(Cc2ccc(C(=O)NO)cc2)C[C@H](C)N1Cc1cccc(CN2CCCCC2)c1` has IC50 of > 10 µM

---

- tested_system: human recombinant HDAC6 (Homo sapiens)
- Sequence (Q9UBN7 whole entry): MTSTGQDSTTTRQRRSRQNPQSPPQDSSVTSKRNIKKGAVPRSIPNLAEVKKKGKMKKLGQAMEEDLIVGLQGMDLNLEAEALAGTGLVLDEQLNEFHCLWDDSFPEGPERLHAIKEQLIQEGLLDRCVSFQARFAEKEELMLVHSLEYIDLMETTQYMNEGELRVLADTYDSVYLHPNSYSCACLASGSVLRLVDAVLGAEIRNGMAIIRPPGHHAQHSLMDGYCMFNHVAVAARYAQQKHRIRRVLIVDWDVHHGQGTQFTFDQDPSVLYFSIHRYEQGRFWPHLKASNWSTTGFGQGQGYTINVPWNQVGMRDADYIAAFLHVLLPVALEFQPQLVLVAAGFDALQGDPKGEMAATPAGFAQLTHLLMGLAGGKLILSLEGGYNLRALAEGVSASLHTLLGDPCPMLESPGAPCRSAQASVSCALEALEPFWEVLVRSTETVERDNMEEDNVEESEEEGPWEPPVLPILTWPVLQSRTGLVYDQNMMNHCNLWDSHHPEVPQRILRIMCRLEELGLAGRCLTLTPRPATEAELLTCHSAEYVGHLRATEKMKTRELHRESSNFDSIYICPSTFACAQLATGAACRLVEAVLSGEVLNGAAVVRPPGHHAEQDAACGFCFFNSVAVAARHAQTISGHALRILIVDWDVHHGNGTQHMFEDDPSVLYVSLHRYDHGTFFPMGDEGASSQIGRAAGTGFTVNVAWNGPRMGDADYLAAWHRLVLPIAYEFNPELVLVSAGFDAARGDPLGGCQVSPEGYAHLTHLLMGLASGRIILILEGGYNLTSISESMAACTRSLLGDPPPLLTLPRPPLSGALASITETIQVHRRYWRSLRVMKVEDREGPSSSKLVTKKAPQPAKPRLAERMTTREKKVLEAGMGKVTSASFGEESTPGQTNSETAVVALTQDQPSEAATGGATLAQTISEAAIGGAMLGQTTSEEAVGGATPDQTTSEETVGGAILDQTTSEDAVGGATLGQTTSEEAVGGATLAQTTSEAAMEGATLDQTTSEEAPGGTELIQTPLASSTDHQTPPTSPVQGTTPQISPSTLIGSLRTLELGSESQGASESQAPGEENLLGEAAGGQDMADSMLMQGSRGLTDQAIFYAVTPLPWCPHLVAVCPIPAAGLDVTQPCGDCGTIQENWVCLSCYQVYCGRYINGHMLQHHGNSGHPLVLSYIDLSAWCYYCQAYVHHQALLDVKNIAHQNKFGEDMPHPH
- measurement_description: HDAC6 enzyme activity inhibition assay (in vitro, fluorimetric)
- test_context: human recombinant HDAC6, fluorimetric kit, same protocol as HDAC1
- Experimental: In order to examine the HDAC6 selectivity of the compounds of formula 1 of the present invention by HDAC1 and HDAC6 enzymatic activity inhibition assays, an experiment was performed using a conventional substance as a control. HDAC enzyme activity was measured using a HDAC Fluorimetric Drug Discovery Kit (BML-AK511, 516, Enzo Life Science). […] Based on the resulting values, each IC50 value was calculated using GraphPad Prism4.0 program.
property_measured: IC50 (nM)
Return type: number; implicit unit nM.

Entry under test: `C[C@@H]1CN(Cc2ccccc2)C[C@H](C)N1Cc1ccc(C(=O)NO)cn1` . Its IC50 was 410

Recorded result, `CCN1CC=C(c2ccccc2CN2[C@H](C)CN(Cc3ccc(C(=O)NO)cc3)C[C@@H]2C)CC1` , IC50: 145

IC50 reading for `C[C@@H]1CN(C(=O)Cc2cccc(-c3ccccc3)c2)C[C@H](C)N1Cc1ccc(C(=O)NO)cc1` : 168

Value of IC50 reported for the compound `C[C@@H]1CN(C(=O)Cc2cccc(-c3ccncc3)c2)C[C@H](C)N1Cc1ccc(C(=O)NO)cc1` is 242

---

- tested_system: human recombinant HDAC6 (Homo sapiens)
- Construct: purchased Calbiochem 382180
- measurement_description: HDAC6 enzyme activity inhibition assay (in vitro, fluorimetric)
- Type: biochemical
- test_context: HDAC6 selectivity over HDAC1
property_measured: HDAC6 selectivity (fold)

{"columns": ["query_smiles", "tested_system", "endpoint_result"],
 "data": [
  ["CC(C)CCN1[C@H](C)CN(Cc2ccc(C(=O)NO)cc2)C[C@@H]1C", "human recombinant HDAC6 (Homo sapiens)", ">5 fold"],
  ["C[C@@H]1CN(Cc2ccc(C(=O)NO)cc2)C[C@H](C)N1Cc1cccc(CN2CC(F)(F)C2)c1", "human recombinant HDAC6 (Homo sapiens)", ">94 fold"]
]}

Then there is this molecule:
For this molecule ( `C[C@@H]1CN(Cc2ccc(C(=O)NO)cc2)C[C@H](C)N1Cc1cccc(C2=CCC(C)(C)CC2)c1` ), measured HDAC6 selectivity (fold) is >25 fold
